Examples of compounds with documented viability, T/C follow.
system: KRAS PDC multicell spheroid viability; assay: Anticancer human tumor 825966-067-R-J1-PDC patient-derived colon carcinoma cell line growth inhibition [KRAS2]; conditions: second compound 0.316 µM; first compound 0.01 µM; active compounds read low;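 also: spheroids exposed to compounds for 7 days; 100% = DMSO vehicle control viability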
Please reply with the bare figure in % and do not write the unit itself.

Compound | Value Unit | viability, T/C
CC(=O)OC12COC1CC(O)C1(C)C(=O)C(O)C3=C(C)C(OC(=O)C(O)C(NC(=O)OC(C)(C)C)c4ccccc4)CC(O)(C(OC(=O)c4ccccc4)C21)C3(C)C (configuration not stated) + CNCc1ccccc1-c1csc(C(C)Nc2nc(C)nc3cc(OC)c(OC)cc23)c1 | % | 17.2

Okay, next one:
# input Look up viability, T/C: Cn1ncnc1[C@H]1c2n[nH]c(=O)c3cc(F)cc(c23)N[C@@H]1c1ccc(F)cc1 + C=CC(=O)N1CCN(c2nc(=O)n(-c3c(C)ccnc3C(C)C)c3nc(-c4c(O)cccc4F)c(F)cc23)C(C)C1
# output 103
